- Target system: T1, recombinant human VEGF165 (PeproTech EC Ltd.) (human, UniProt P15692-4 27-191)
- T1 construct: Amine-coupled to a CM4 sensor chip; also called hVEGF165
- T1 sequence (P15692 other isoform, or with tags, fused parts or gaps limits assumed): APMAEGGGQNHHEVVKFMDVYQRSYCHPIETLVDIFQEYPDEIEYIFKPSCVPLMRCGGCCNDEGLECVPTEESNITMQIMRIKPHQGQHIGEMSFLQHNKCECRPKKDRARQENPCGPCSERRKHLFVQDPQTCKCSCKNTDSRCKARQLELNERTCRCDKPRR
- Assay notes: SPR BIAcore T100, hVEGF165 amine-coupled on CM4 chip, scFv as analyte
The entries below are paired with their reported kon.
Give the value in M⁻¹ s⁻¹ but do not write M⁻¹ s⁻¹ after it.

Observe how each entry below is paired with its result.
375-max (scFv) EIVMTQSPSTLSASVGDRVIITCQASENINIWLSWYQQKPGKAPKLLIYQASKLASGVPSRFSGSGSGTQFTLTISSLQPDDFATYYCQNNYSYNRYGAPFGQGTKLTVLGGGGGSGGGGSGGGGSGGGGSEVQLVESGGGLVQPGGSLRLSCKASGFSFTTTDYMCWVRQAPGKGLEWVGCILAGDGSTYYANWAKGRFTGSKDTSKNTVYLQMNSLRAEDTAVYYCARSDPASSWSFALWGQGTLVTVSS
2.44e+06
375-min (scFv) EIVMTQSPSTLSASVGDRVIITCQASENINIWLSWYQQKPGKAPKLLIYQASKLASGVPSRFSGSGSGAEFTLTISSLQPDDFATYYCQNNYSYNRYGAPFGQGTKLTVLGGGGGSGGGGSGGGGSGGGGSEVQLVESGGGLVQPGGSLRLSCAASGFSFTTTDYMCWVRQAPGKGLEWVSCILAGDGSTYYANWAKGRFTISRDNSKNTLYLQMNSLRAEDTAVYYCAKSDPASSWSFALWGQGTLVTVSS
927000

Proceeding to the next binder to report its kon.
Any idea what its kon is? The binder is 578-min (scFv) EIVMTQSPSTLSASVGDRVIITCQASEIIHSWLAWYQQKPGKAPKLLIYLASTLASGVPSRFSGSGSGAEFTLTISSLQPDDFATYYCQNVYLASTNGANFGQGTKLTVLGGGGGSGGGGSGGGGSGGGGSEVQLVESGGGLVQPGGSLRLSCAASGFSLTDYYYMTWVRQAPGKGLEWVSFIDPDDDPYYATWAKGRFTISRDNSKNTLYLQMNSLRAEDTAVYYCAKGDHNSGWGLDIWGQGTLVTVSS
1.14e+06

The measurements presented in this section are drawn from patent EP3964526A1.
